test system: SF-295 CNS; test: NCI tumour cell line growth inhibition, 48 h
parameter: TGI

Some entries whose results are on file:
[[record]]
compound = "CCCCCCCCCCCCCCCCCCNc1ccn(C2OC(COP(=O)(O)OCC3OC(n4cc(F)c(NCCCCCCCCCCCCCCCCCC)nc4=O)CC3O)C(O)C2O)c(=O)n1 (stereo not drawn)"
endpointvalue = "> 100 µM"

[[record]]
compound = "C1=C2/CC[C@H](Sc3ccccc3)[C@H]2C2(CCCCC/1)OCCO2"
endpointvalue = "> 100 µM"

[[record]]
compound = "Cc1ccc(C)c(NC(=O)CC/C(=N\\NC(=O)c2c(O)ccc3ccccc23)C(C)C(=O)c2ccc(O)cc2)c1 (stereo not drawn)"
endpointvalue = "> 100 µM"


Then there is this compound:
(Q) So what TGI did `CC1(C)CC(=O)c2c(nc3ccc4ccccc4c3c2-c2ccc(NC(=O)CCCCCCCCC(=O)Nc3ccc(-c4c5c(nc6ccc7ccccc7c46)CC(C)(C)CC5=O)cc3)cc2)C1` get with SF-295 CNS?
(A) > 100 µM
